- target.entity: pY705-STAT3 in PBMC (Homo sapiens, UniProt P40763)
- Construct: Cryopreserved Peripheral Blood Mononuclear Cells (PBMC) are from AllCells; host or cells: cryopreserved PBMC
- Sequence (P40763 whole entry): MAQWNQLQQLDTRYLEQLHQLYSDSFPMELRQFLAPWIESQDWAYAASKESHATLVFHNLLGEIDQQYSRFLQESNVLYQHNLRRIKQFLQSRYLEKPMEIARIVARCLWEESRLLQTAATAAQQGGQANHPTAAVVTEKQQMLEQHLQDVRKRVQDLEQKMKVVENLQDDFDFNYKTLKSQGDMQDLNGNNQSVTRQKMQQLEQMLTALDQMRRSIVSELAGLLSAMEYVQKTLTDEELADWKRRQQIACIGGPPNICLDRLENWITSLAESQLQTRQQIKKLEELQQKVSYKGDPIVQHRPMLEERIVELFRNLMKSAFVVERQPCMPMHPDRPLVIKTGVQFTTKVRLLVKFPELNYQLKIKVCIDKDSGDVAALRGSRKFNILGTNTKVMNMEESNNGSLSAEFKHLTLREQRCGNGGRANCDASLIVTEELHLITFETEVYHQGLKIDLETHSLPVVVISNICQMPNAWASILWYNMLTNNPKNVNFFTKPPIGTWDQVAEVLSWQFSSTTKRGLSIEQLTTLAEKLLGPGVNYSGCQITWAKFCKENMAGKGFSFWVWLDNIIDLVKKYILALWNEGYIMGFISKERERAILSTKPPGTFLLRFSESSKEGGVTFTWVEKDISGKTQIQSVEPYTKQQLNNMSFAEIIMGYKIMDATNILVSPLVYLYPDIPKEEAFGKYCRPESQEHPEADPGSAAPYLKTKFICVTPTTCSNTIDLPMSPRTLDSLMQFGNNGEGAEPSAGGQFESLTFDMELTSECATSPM
- assay.procedure: MSD-pSTAT-PBMC Assay (pSTAT3, IL-6 stimulated)
- Assay type: cell-based
- measurement.conditions: PBMC, compound 3 hrs, then 10 ng/mL IL-6 for 10 min; Table 115; read-out: STAT3
value.kind: IC50

- compound: "CC(C)CC(=O)SCCOP(=O)(OCOC(=O)OC(C)C)[C@H](F)c1ccc2sc(C(=O)N[C@H]3CCC[C@H]4CC[C@@H](C(=O)N5CC(c6cccnc6)C5)N4C3=O)cc2c1 (some centres unmarked)"
  value.kind: "IC50"
  test.result: "< 100 nM"
- compound: "CCCOC(=O)[C@H](C)NP(=O)(Cc1ccc2sc(C(=O)N[C@H]3CCC[C@H]4CC[C@@H](C(=O)N5CC(c6cnccc6N6CC(OC)C6)C5)N4C3=O)cc2c1)Oc1ccccc1 (some centres unmarked)"
  value.kind: "IC50"
  test.result: "< 100 nM"
- compound: "CCCOC(=O)[C@H](C)NP(=O)(Oc1ccccc1)[C@@H](F)c1ccc2sc(C(=O)N[C@H]3C[C@@H](C)C[C@H]4CC[C@@H](C(=O)N5CC(c6cnccc6N(C)C)C5)N4C3=O)cc2c1 (some centres unmarked)"
  value.kind: "IC50"
  test.result: "< 100 nM"
- compound: "COc1ccncc1C1CN(C(=O)[C@@H]2CC[C@@H]3CCC[C@H](NC(=O)c4cc5cc([C@H](F)[P@@](=O)(N[C@@H](C)C(=O)OCC(C)(C)C)Oc6ccccc6)ccc5s4)C(=O)N32)C1 (single isomer, unassigned)"
  value.kind: "IC50"
  test.result: "< 100 nM"
- compound: "CCCOC(=O)[C@H](C)NP(=O)(Oc1ccccc1)C(F)c1ccc2sc(C(=O)N[C@H]3CCCC[C@H]4CC[C@@H](C(=O)NCc5cnc6[nH]cnc6c5)N4C3=O)cc2c1 (some centres unmarked)"
  value.kind: "IC50"
  test.result: "100 to 1000 nM"

Any idea what its IC50 is? The compound is CCCOC(=O)[C@H](C)NP(=O)(Oc1ccccc1)[C@H](F)c1ccc2sc(C(=O)N[C@H]3CCC[C@H]4CC[C@@H](C(=O)N5CC(c6cnccc6N6CC(C#N)C6)C5)N4C3=O)cc2c1 (some centres unmarked)
100 to 1000 nM

Any idea what its IC50 is? The compound is CC(C)COC(=O)[C@H](C)NP(=O)(Cc1ccc2sc(C(=O)N[C@H]3CCC[C@H]4CC[C@@H](C(=O)N5CC(c6cccnc6)C5)N4C3=O)cc2c1)Oc1ccccc1 (some centres unmarked)
< 100 nM

Any idea what its IC50 is? The compound is CCCOC(=O)[C@H](C)N[P@](=O)(Oc1ccccc1)[C@@H](F)c1ccc2sc(C(=O)N[C@H]3C[C@@H](C)C[C@H]4CC[C@@H](C(=O)N5CC(c6cnccc6OC(C)C)C5)N4C3=O)cc2c1 (single isomer, unassigned) [Compound 1034]
< 100 nM

Any idea what its IC50 is? The compound is CC(C)CC(=O)SCCOP(=O)(OCCSC(=O)CC(C)C)C(F)(F)c1ccc2ccc(C(=O)N[C@H]3CCCC[C@H]4CC[C@@H](C(=O)N5CC(c6cc[nH]c(=O)c6)CC56CC6)N4C3=O)cc2c1 (some centres unmarked)
100 to 1000 nM

From: patent US20250215029A1
